Assay details: Powder SHG efficiency (Kurtz and Perry powder technique, sucrose standard)
Type: physicochemical
Condition details: relative to sucrose; average ± standard deviation
No end group written: not given here.
The label Criterion met is reserved for Powder SHG efficiency I^2ω/I^2ω(sucrose) strictly under 0.9; Criterion not met covers values equal to or above it.

Substance: NFGAIL (listed as Homo sapiens) [NL6]
Class assignment: Criterion met

Substance: LIVAGD (Ac-LIVAGD) [LD6, designed synthetic hexamer, negatively charged, acetylated at the N terminus]
Class assignment: Criterion not met

Substance: KLVFFAE (listed as Homo sapiens) [KE7]
Class assignment: Criterion not met

Substance: GGVVIA (listed as Homo sapiens) [GA6]
Class assignment: Criterion not met

Substance: Ac-LIVAGK-NH2 [LK6, Ac-LIVAGK-NH2]
Class assignment: Criterion not met

Substance: ILVAGS (Ac-ILVAGS) [IS6, designed synthetic hexamer, neutral, acetylated at the N terminus]
Class assignment: Criterion not met
